# target: Translocator protein (Rattus norvegicus)
# Sequence (P16257 whole entry, looked up): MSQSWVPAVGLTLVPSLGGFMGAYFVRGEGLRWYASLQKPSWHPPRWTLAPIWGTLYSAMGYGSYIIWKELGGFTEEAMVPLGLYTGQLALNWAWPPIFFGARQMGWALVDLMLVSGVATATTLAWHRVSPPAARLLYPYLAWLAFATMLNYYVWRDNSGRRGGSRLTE
# experiment-notes: Displacement of [3H]Ro-5-4864 from rat kidney peripheral benzodiazepine receptor
pIC50: −log10 of the molar value.
measurement-name: pIC50

[[record]]
entry_smiles = "COc1ccc(N(C)C(=O)/C=C2\\c3nc4ccccc4cc3C(=O)N2c2ccc(Cl)cc2)cc1"
target = "Translocator protein (Rattus norvegicus)"
measurement_name = "pIC50"
numeric_result = 8.77

[[record]]
entry_smiles = "CN(C(=O)/C=C1\\c2nc3ccccc3cc2C(=O)N1c1ccc(Cl)cc1)c1ccc(Cl)cc1"
target = "Translocator protein (Rattus norvegicus)"
measurement_name = "pIC50"
numeric_result = 8.70

[[record]]
entry_smiles = "CCCN(CCC)C(=O)/C=C1\\c2nc3ccccc3cc2C(=O)N1c1ccc(Cl)cc1"
target = "Translocator protein (Rattus norvegicus)"
measurement_name = "pIC50"
numeric_result = 6.82

